For each of the molecules below, state its melting point.
Counter-ions that a name gives are not always drawn.

Check out these entries, answers already filled in.
MOLECULE: CS(=O)(=O)c1ccc(-c2c[nH]c([C@@H](NC3CCCCC3)C3CCCCC3)n2)cc1
melting point: 152 to 154 °C
//
MOLECULE: CCCCOC(=O)NCCc1nc(-c2ccc(CCC)cc2)c[nH]1
melting point: 83.2 °C
//
MOLECULE: Fc1ccc(-c2c[nH]c([C@@H](CC3CCCCC3)NC3CCCCC3)n2)cc1
melting point: 217 to 218 °C
//
MOLECULE: CCCCCCC(N)c1nc(-c2cc(C(C)(C)C)c(O)c(C(C)(C)C)c2)c[nH]1 (racemic) (as salt: hydrochloride)
melting point: 204 to 206 °C
//
MOLECULE: CC(C)(C)OC(=O)N[C@H](Cc1c[nH]c2ccccc12)c1nc(-c2ccccc2)c[nH]1
melting point: 208 to 210 °C

Report melting point for every entry below.
1. CCCCCCC(NCc1ccccc1)c1nc(-c2ccccc2OC)c[nH]1 (racemic)
2. O=C(NCCc1nc(-c2ccc(-c3ccccc3)cc2)c[nH]1)OCC1CCC1
3. Fc1ccc(-c2c[nH]c(C(NC3CCC3)C3CCCC3)n2)cc1 (racemic)

1. 155 to 157 °C
2. 144 to 145 °C
3. 146 to 148 °C
